Hello, the source for this data is the RNAGym collection of RNA variant scans (doi:10.1073/pnas.2313332121), in case you need it.

B1: TPR 5TU (parent)
chain: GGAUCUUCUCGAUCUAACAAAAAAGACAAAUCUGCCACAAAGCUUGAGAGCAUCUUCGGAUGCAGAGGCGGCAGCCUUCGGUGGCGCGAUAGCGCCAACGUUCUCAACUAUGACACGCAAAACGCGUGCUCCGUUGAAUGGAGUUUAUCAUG

Variants of: B1
assayRemarks: polymerase ribozyme fitness, log enrichment relative to wild type (log ratio); higher = more active; in vitro selection for triplet polymerase activity
Fewer inactive variants are shown than the library holds.
Label scheme for polymerase ribozyme fitness (log ratio): lower than -3 is class 0, -3 and above is class 1.

Tell me whether polymerase ribozyme fitness (log ratio) is at least -3 here: A3G A26U C72U
class 0

API: above_or_equal(metric=polymerase ribozyme fitness (log ratio), cutoff=-3) for item A47C A60G C93A C95A C96U U139G
class 0

Is reported polymerase ribozyme fitness (log ratio) greater than or equal to -3 here: C43A C57U C76G C85A G86A G140A
class 0

Assess whether reported polymerase ribozyme fitness (log ratio) for G25U G50U C54A A66U A91C sits at -3 or higher.
class 0

Could you verify whether the entry C85U A91C U102C shows polymerase ribozyme fitness (log ratio) of no less than -3?
class 0

Check the entry A39U C72A G83A A137U : does polymerase ribozyme fitness (log ratio) equal or exceed -3?
class 0

Determine whether measured polymerase ribozyme fitness (log ratio) meets or exceeds -3 for C14U A17C C18G A20G G59U C85U A91U C118U G140A
class 0

Tell me whether polymerase ribozyme fitness (log ratio) is at least -3 here: A12G G83A G126U U134C U148G
class 0

Kindly determine if polymerase ribozyme fitness (log ratio) recorded for C18G A19U A23C G67C G126A G143U U144C is above or exactly -3.
class 0

Say whether C54G C103A G140C shows polymerase ribozyme fitness (log ratio) of -3 or more.
class 0

Dear colleague, could you confirm whether C79G G81U G133A has polymerase ribozyme fitness (log ratio) at or above -3?
class 0

Given the entry U31A G68C C76A C85A , answer whether its polymerase ribozyme fitness (log ratio) meets or surpasses -3.
class 0

Is polymerase ribozyme fitness (log ratio) for U4C A47U C85U C105A C116G G143A A147U at or above -3?
class 0

polymerase ribozyme fitness (log ratio) >= -3 for A16U A30C A47G G58A U111A ?
class 0

Is polymerase ribozyme fitness (log ratio) for C27U U78A C79G A91C C118G at or above -3?
class 0

Does U90A A91C U102G U151G have a reported polymerase ribozyme fitness (log ratio) of at least -3?
class 0

Can A12C U53A G58U C99G U151C be said to have polymerase ribozyme fitness (log ratio) at or above -3?
class 0

Decide: polymerase ribozyme fitness (log ratio) of U31A G58C C75A C103U U109A A110G >= -3?
class 0

Confirm if polymerase ribozyme fitness (log ratio) reported for the variant C76G G84A A122G is -3 or above.
class 0

In plain terms: is recorded polymerase ribozyme fitness (log ratio) at least -3 for G46C C76U ?
class 0

Please indicate if the recorded polymerase ribozyme fitness (log ratio) for A19U A28U G67C U82A C87A A122C U127C U145C meets or exceeds -3.
class 0

Check this variant for polymerase ribozyme fitness (log ratio) at or above -3: A19U A21C
class 1

Exam item: decide whether the reported polymerase ribozyme fitness (log ratio) for C10U G136A is at least -3.
class 1

Kindly determine if polymerase ribozyme fitness (log ratio) recorded for C35U U44A A49C G74U G80A U109G A121G is above or exactly -3.
class 0

Is reported polymerase ribozyme fitness (log ratio) greater than or equal to -3 here: U7G C54U G92U
class 1

Dear colleague, could you confirm whether A29U U31G A47C U61A G81A C95U G100U has polymerase ribozyme fitness (log ratio) at or above -3?
class 0

Given the entry U82G G128U , answer whether its polymerase ribozyme fitness (log ratio) meets or surpasses -3.
class 0

Is it the case that A12G C51U has polymerase ribozyme fitness (log ratio) reaching or exceeding -3?
class 1

Is the recorded value of polymerase ribozyme fitness (log ratio) equal to or greater than -3 for this variant? G50U G94A A113G A147C
class 0

Given C87U C108U , state whether its polymerase ribozyme fitness (log ratio) is at least -3.
class 0

# bool: polymerase ribozyme fitness (log ratio) of U53A G80C A106C C125U >= -3
class 0

Does polymerase ribozyme fitness (log ratio) meet or surpass -3 for G88A A98U A106C ?
class 0

Determine whether this variant has polymerase ribozyme fitness (log ratio) no lower than -3: A24U G68A
class 0

Quick check: does A22C G58C G70U U134C have polymerase ribozyme fitness (log ratio) greater than or equal to -3?
class 0

Decide: is the reported value of polymerase ribozyme fitness (log ratio) for G48C G94U C103U G140A equal to or greater than -3?
class 0

Confirm if polymerase ribozyme fitness (log ratio) reported for the variant G58A G83A A147C is -3 or above.
class 1

Answer whether polymerase ribozyme fitness (log ratio) of A52G U56C C93A is greater than or equal to -3.
class 1

// inclusive: polymerase ribozyme fitness (log ratio) at least -3? input: U109G C118G U144A
class 0

Decide: is the reported value of polymerase ribozyme fitness (log ratio) for U6G U134C equal to or greater than -3?
class 1

Form field: polymerase ribozyme fitness (log ratio) at least -3? Entry: C85G G92C A106C A120U A121G U134A
class 0

Hi team, for A28G U56A G136C , is the recorded polymerase ribozyme fitness (log ratio) at or above -3?
class 0

Hello, I need to know if C14A G62U has measured polymerase ribozyme fitness (log ratio) not below -3. Thanks!
class 1

Has C36U U55A A97G A121G U134G a recorded polymerase ribozyme fitness (log ratio) greater than or equal to -3?
class 0

Is the recorded value of polymerase ribozyme fitness (log ratio) equal to or greater than -3 for this variant? A20U A21U
class 1

API: above_or_equal(metric=polymerase ribozyme fitness (log ratio), cutoff=-3) for item C10A A91G C93U U144G
class 0

polymerase ribozyme fitness (log ratio) >= -3 for A17U A21U C43U G71A C75U C93A C114U A120U U151G ?
class 0

Please indicate if the recorded polymerase ribozyme fitness (log ratio) for C79U G84A C108A C114A C118A U139G meets or exceeds -3.
class 0

# bool: polymerase ribozyme fitness (log ratio) of C75U U145C U146G >= -3
class 1

Evaluate U61A A137C G140A : polymerase ribozyme fitness (log ratio) at minimum -3?
class 0

Threshold query (polymerase ribozyme fitness (log ratio) >= -3) on A3U G83A C87U U111G
class 0

Textbook exercise: given the entry U61A G88U , state whether its polymerase ribozyme fitness (log ratio) is greater than or equal to -3.
class 0

Reported polymerase ribozyme fitness (log ratio) reaches at least -3 for G58U C72U C87U C99G G141C ?
class 0

Say whether A39U C51U C54U A60G U82G A98C shows polymerase ribozyme fitness (log ratio) of -3 or more.
class 0

Answer whether polymerase ribozyme fitness (log ratio) of A40U G86A G141A is greater than or equal to -3.
class 1

Please check the record U56G G70U C85U U151A and state if its polymerase ribozyme fitness (log ratio) is at or above -3.
class 0

Is polymerase ribozyme fitness (log ratio) for G34A U55A C69A C76U G80C C87G A89C A107C C116U at or above -3?
class 0

Quick check, polymerase ribozyme fitness (log ratio) >= -3? A47U G86A
class 1

Does G59A G74A have a reported polymerase ribozyme fitness (log ratio) of at least -3?
class 0
